# key: entry, value: pIC50
Biological target: T1, rat NPY Y5 receptor, clone Y217.24.13.6B (rat)
T1 chain: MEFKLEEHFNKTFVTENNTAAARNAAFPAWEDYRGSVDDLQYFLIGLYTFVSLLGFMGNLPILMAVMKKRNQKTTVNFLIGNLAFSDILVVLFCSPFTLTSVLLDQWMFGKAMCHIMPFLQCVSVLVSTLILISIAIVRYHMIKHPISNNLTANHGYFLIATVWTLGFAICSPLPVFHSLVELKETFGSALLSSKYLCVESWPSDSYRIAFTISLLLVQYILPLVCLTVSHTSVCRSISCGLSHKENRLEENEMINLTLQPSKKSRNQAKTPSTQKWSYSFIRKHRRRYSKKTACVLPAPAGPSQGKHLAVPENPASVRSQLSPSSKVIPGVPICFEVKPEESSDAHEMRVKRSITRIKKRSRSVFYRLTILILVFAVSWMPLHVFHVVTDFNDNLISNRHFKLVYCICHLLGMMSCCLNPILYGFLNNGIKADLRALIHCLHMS
Experiment: competition with [125I]PYY, membranes of transfected COS-7 cells
pIC50: −log10 of the molar value. Ends that are not written are not given here.

{"columns": ["binder", "propertyName", "result"],
 "data": [
  ["SALRHYINLITRQRY (ends and bridges not checked) [r/h(22-36)NPY]", "pIC50", "< 6.00"],
  ["SPEELSRYYASLRHYLNLVTRQRY [r(13-36)PYY]", "pIC50", 7.88]
]}

# context switch: different binder, same pIC50
// recorded pIC50 for HYINLITRQRY (ends and bridges not checked) [r/h(26-36)NPY] : < 6.00
